experiment: galactose survival enhancers in mitochondrial complex I cybrids – cell-based, galactose medium, ATP luminescence, primary screen (AID 1645843); details: complex I mutant cybrid cells, 72 h, stronger effect = higher value;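 note: positive z means more ATP and so rescue of galactose-driven cybrid death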
PARAMETER_MEASURED: z-score
Please reply with the number alone, leaving off any unit.

COc1cc(C(=O)NC2CCCNC2)cc(OC)c1OC (stereo unspecified)	0.125

Q. Give the measured z-score of CC(=O)Oc1ccc(C(c2ccc(OC(C)=O)cc2)c2ccccn2)cc1 .
A. -0.6

Q. Give the measured z-score of CC(=O)O[C@H]1C[C@@H]2CC[C@@H]3[C@H](CC[C@@]4(C)[C@H]3C[C@H]([N+]3(C)CCCCC3)[C@@H]4OC(C)=O)[C@@]2(C)C[C@@H]1N1CCCCC1 .
A. 0.335

Q. Give the measured z-score of C=CC(N)CCC(=O)O (stereo unspecified) .
A. 0.155

Q. Give the measured z-score of CCOc1cc(N)c(Cl)cc1C(=O)NCC1CN(Cc2ccc(F)cc2)CCO1 (stereo unspecified) .
A. 0.725

Q. Give the measured z-score of CN1C(C(=O)Nc2ccccn2)=C(O)c2sccc2S1(=O)=O .
A. -0.07

Q. Give the measured z-score of Nc1[nH]c(=O)ncc1F .
A. 0.61

Q. Give the measured z-score of NCCCC(=O)O .
A. 0.26

Q. Give the measured z-score of CC(=O)Nc1ccc(CC(=O)O)cc1 .
A. 0.87

Q. Give the measured z-score of CC(C)NC[C@@H](O)COc1cccc2ccccc12 .
A. 0.54

* * *

target: Calcium-activated potassium channel subunit alpha-1 (Homo sapiens) + Leucine-rich repeat-containing protein 26 (Homo sapiens) (UniProt Q12791+Q2I0M4); assay: BK channel mutant inhibitors and activators – cell-based, U2OS BacMam, thallium flux, beta subunits, selectivity assay, profiling panel (AID 1259406); conditions: U2OS BacMam BK variants, F380Y/Slo1WT/gamma1, at 30 µM;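 note: initial slope of Thallos dye fluorescence rise after thallium is added; log ratio against the mean of 0.3% DMSO vehicle wells on the same plate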
Sequence (Q2I0M4 whole entry, looked up, one chain of several): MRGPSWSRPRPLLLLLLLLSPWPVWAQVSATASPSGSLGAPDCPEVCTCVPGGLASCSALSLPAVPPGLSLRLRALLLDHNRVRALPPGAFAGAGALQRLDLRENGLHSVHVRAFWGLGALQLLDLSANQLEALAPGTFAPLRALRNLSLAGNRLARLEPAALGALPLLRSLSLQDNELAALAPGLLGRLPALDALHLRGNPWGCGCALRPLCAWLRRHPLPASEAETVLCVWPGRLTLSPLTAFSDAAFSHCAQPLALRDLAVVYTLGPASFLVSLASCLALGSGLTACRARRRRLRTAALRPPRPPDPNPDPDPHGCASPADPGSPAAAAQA
Catalogue of compounds with associated log fold change Tl+ flux
Please reply with the number alone, leaving off any unit.

CCN(CC)CCNC(=O)c1cc(Cl)c(N)cc1OC	0.0156

Q. Give the measured log fold change Tl+ flux of Cn1nnc2c(C(N)=O)ncn2c1=O .
A. 0.0144

Q. Give the measured log fold change Tl+ flux of Nc1nc2c(ncn2CCC(CO)CO)c(=O)[nH]1 .
A. -0.013

Q. Give the measured log fold change Tl+ flux of CCOC(=O)C1=C(C)NC(C)=C(C(=O)OC)C1c1cccc(Cl)c1Cl (stereo not drawn) .
A. 0.00637

Q. Give the measured log fold change Tl+ flux of NC(=O)OCC(COC(N)=O)c1ccccc1 .
A. 0.0713

Q. Give the measured log fold change Tl+ flux of CCCOc1ccc(C(=O)OCCN(CC)CC)cc1N .
A. 0.00339

Q. Give the measured log fold change Tl+ flux of CC(=O)O[C@H]1C[C@@H]2CC[C@@H]3[C@H](CC[C@@]4(C)[C@H]3C[C@H]([N+]3(C)CCCCC3)[C@@H]4OC(C)=O)[C@@]2(C)C[C@@H]1N1CCCCC1 .
A. -0.00222

Q. Give the measured log fold change Tl+ flux of Cc1cccc(C)c1NC(=O)C(C)N (stereo not drawn) .
A. -0.00222

* * *

system: R275C; assay: BK channel mutant inhibitors and activators – cell-based, U2OS BacMam, thallium flux, beta subunits, selectivity assay, profiling panel (AID 1259406); conditions: U2OS BacMam BK variants, at 30 µM;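 note: initial slope of Thallos dye fluorescence rise after thallium is added; log ratio against the mean of 0.3% DMSO vehicle wells on the same plate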
Active and inactive are the calls of the source.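 Rule for the calls: active = thallium flux through the channel raised or lowered by more than 3 SD from vehicle-only wells, actives on both sides; inactive = the rest.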
Give your call using only these classes: 1 (active), -1 (inactive)

Example entries and their recorded answers appear below.
CC(C)[C@H](N)C(=O)OCCOCn1cnc2c(=O)[nH]c(N)nc21	-1
OCc1cccnc1	-1
COC(=O)C1=C(C)NC(C)=C(C(=O)OCC(C)C)C1c1ccccc1[N+](=O)[O-] (configuration not stated)	1
O=C(CCNNC(=O)c1ccncc1)NCc1ccccc1	-1
CNS(=O)(=O)Cc1ccc2[nH]cc(CCN(C)C)c2c1	-1

Q. What was the test verdict on CCN1CCC[C@H]1CNC(=O)c1cc(S(N)(=O)=O)ccc1OC ?
A. -1

Q. What was the test verdict on C#C[C@]1(O)CC[C@H]2[C@@H]3[C@H](C)CC4=C(CCC(=O)C4)[C@H]3CC[C@@]21C ?
A. -1

Q. What was the test verdict on CN(CCCN1c2ccccc2CCc2ccccc21)CC(=O)c1ccc(Cl)cc1 ?
A. -1

Q. What was the test verdict on Cc1cccc(C)c1NC(=O)C(C)N (configuration not stated) ?
A. -1

Q. What was the test verdict on CC(C)NCC(O)COc1ccc(COCCOC(C)C)cc1 (configuration not stated) ?
A. -1

Q. What was the test verdict on NS(=O)(=O)Cc1noc2ccccc12 ?
A. -1

Q. What was the test verdict on CN(C)CC[C@@H](c1ccc(Cl)cc1)c1ccccn1 ?
A. -1

* * *

assay: EMT-state selective cytotoxicity in co-culture – imaging, PC-3E GFP, TEM4-18 mCherry, primary screen (AID 1345086); conditions: PC-3E GFP / TEM4-18 mCherry co-culture, imaging cell counts; at 1 µM; actives lie on both sides; counts scaled to control wells, 1 = unselective;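 note: normalised mesenchymal count divided by normalised epithelial count so high means epithelial killing; cells exposed to compound for 72 h before imaging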
Entry flag: MET if red/green cell ratio (normalised) reaches 1; NOT MET if it does not.

CNC[C@H](O)c1cccc(O)c1	MET
O=C1NCC2(CCN(CCc3ccccc3)CC2)O1	NOT MET
O=C(O)c1cccnc1Nc1cccc(C(F)(F)F)c1	NOT MET
Cc1cnc(NC(=O)C2=C(O)c3ccccc3S(=O)(=O)N2C)s1	NOT MET

Now turn to the next compound.
Q. Does the reported red/green cell ratio (normalised) for O=C1c2ccccc2C(=O)C1c1ccccc1 fall at or above the 1 mark?
A. MET

* * *

experiment: stimulators of insulin release from INS-1E, primary screen, cell-based, 5 mM glucose, NPC library (AID 1117329); details: rat INS-1E insulin secretion, at 10 µM
Activity calls are given as the source filed them.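 The calls were made as follows: active = compound raises insulin release from rat beta cells at 5 mM glucose, no numeric limit stated; inactive = the rest.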
Give your call using only these classes: active, inactive

OC(CCN1CCCCC1)(c1ccccc1)c1ccccc1	active

Q. What was the test verdict on O=C(O)CCC(=O)c1ccc(-c2ccccc2)cc1 ?
A. inactive

Q. What was the test verdict on COc1ccc(CCN(C)CCCC(C#N)(c2ccc(OC)c(OC)c2)C(C)C)cc1OC (centres undefined) ?
A. inactive

Q. What was the test verdict on COc1cc(C)c(Cc2cnc(N)nc2N)cc1OC ?
A. inactive

* * *

experiment: blockers of cytochrome c efflux from mitochondria – biochemical, purified mitochondria (AID 1603); details: stronger effect = lower value;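 note: mouse liver mitochondria challenged with calcium chloride; signal normalized to the plate average as 100%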
PARAMETER_MEASURED: cytochrome c release ratio
Please reply with the number alone, leaving off any unit.

Some solved entries appear below for comparison.
N[C@@H](Cc1ccc(O)c(O)c1)C(=O)O	0.96
COc1cc(C(=O)NCc2ccc(OCCN(C)C)cc2)cc(OC)c1OC	0.61
NS(=O)(=O)c1cc2c(cc1Cl)NC(C(Cl)Cl)NS2(=O)=O (stereo unspecified)	1.13
CC(C)COCC(CN(Cc1ccccc1)c1ccccc1)N1CCCC1 (stereo unspecified)	0.32
COc1ccc(C(=O)c2ccccc2)c(O)c1	1.17

We now examine a further compound.
Q. Give the measured cytochrome c release ratio of CC(C)(Oc1ccc(Cl)cc1)C(=O)O .
A. 1.13

* * *

Catalogue of compounds with associated nuclear beta-catenin stimulation
assay: Wnt pathway potentiators raising nuclear beta-catenin – imaging, WNT3A-conditioned medium, mouse C2C12, NPC library, primary screen (AID 1117326); details: stimulation, at 2 µM, stronger effect = higher value
Reply numerically in %, unit not repeated.

Some solved entries appear below for comparison.
CCc1c(C)[nH]c2c1C(=O)C(CN1CCOCC1)CC2 (stereo unspecified)	-0.2
Nc1nc(N)nc(-c2cc(Cl)ccc2Cl)n1	0.3

Q. Give the measured nuclear beta-catenin stimulation of O=C(CCNNC(=O)c1ccncc1)NCc1ccccc1 .
A. 0.1

Q. Give the measured nuclear beta-catenin stimulation of O=NN(CCCl)C(=O)NCCCl .
A. 1.3

Q. Give the measured nuclear beta-catenin stimulation of CC(C)NC[C@@H](O)COc1cccc2ccccc12 .
A. 1.7

Q. Give the measured nuclear beta-catenin stimulation of O=P(O)(O)C(O)(Cc1cccnc1)P(=O)(O)O .
A. -0.8

* * *

assay: HCT116 colon cancer cell growth inhibition, primary screen, CellTiter-Glo luminescence, NPC library (AID 1117342); details: at 20 µM (top of the series)
Activity calls are given as the source filed them.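 Rule for the calls: active = compounds that lower survival of HCT116 colon cancer cells in the luminescence readout, no numeric limit stated; inactive = the rest.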
Give your call using only these classes: true (1) (active), false (0) (inactive)

Q. What was the test verdict on Cn1c(NCCN(CCO)CCCc2ccc([N+](=O)[O-])cc2)cc(=O)n(C)c1=O ?
A. false (0)

* * *

assay: glutamate transport activators, MN-1 cells, MN-1 cell line (AID 1612); details: MN-1 motor neuron cells, stronger effect = higher value;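 note: tested at 1 µM final; 0% = mean of DMSO vehicle wells on each plate; positive means more glutamate uptake than control and negative means less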
PARAMETER_MEASURED: glutamate uptake change (%)
Reply numerically in %, unit not repeated.

Cc1oncc1C(=O)Nc1ccc(C(F)(F)F)cc1	8.42
COc1ccc(CCN(C)CCCC(C#N)(c2ccc(OC)c(OC)c2)C(C)C)cc1OC (configuration not stated)	24.7
CN(C)CCOC(=O)COc1ccc(Cl)cc1	-7.05
C=C1c2cccc(O)c2C(O)=C2C(=O)[C@]3(O)C(O)=C(C(N)=O)C(=O)[C@@H](N(C)C)[C@@H]3[C@@H](O)[C@H]12	-2.5
CC(C)(C)CC(C)(C)c1ccc(O)c(Cc2ccc(Cl)cc2Cl)c1	-22.5
NC(Cc1ccc(Cl)cc1)C(=O)O (configuration not stated)	-15.1

We now examine a further molecule.
Q. Give the measured glutamate uptake change of CN1CCC(=C2c3ccccc3CC(=O)c3sccc32)CC1 .
A. 0.39
